experiment: small-molecule binders of probe aInhba, primary screen, biochemical, small-molecule microarray, 635/667 nm fluorescence (AID 1148); settings: higher = more signal;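 note: score merges 667nm spot fluorescence with signal-to-noise for antibody binding to printed compounds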
Readout name: composite z-score
Give the figure only, with no unit attached.

Look up and report measured composite z-score for this entry: COC(=O)c1c(CC[C@@H](CO)NC(=O)Nc2ccc(OC)cc2)oc(C(=O)Cc2ccccc2)c1C(=O)OC
-0.0531

Determine its reported composite z-score: CC(C)[Si](C#C[Si](C(C)C)(C(C)C)C(C)C)(O[C@H](C)c1cn([C@H](C)c2ccccc2)nn1)C(C)C
-0.0209

Find the measured composite z-score of COc1ccc([Si](C)(C)[C@H]2[C@H](CC(=O)N3Cc4ccccc4C[C@H]3CO)O[C@@]3(C(=O)N(Cc4cccc(N5C(=O)COc6ccccc65)c4)c4ccccc43)[C@@H]2C)cc1 and report it.
-0.0986

# return recorded composite z-score for input C=C(CCCC)/C(=C/C[C@H](OC(=O)c1ccncc1)c1ccc(CO)o1)c1cnc2ccccc2c1
0.212

Give a short answer stating reported composite z-score for CC(C)NC(=O)[C@@H]1c2ccccc2C(=O)N(Cc2cc(F)cc(C(F)(F)F)c2)[C@H]1c1ccc(CO)cc1 .
-0.329

Give me measured composite z-score, please, for this compound: O=C1N(CCS(=O)(=O)c2ccccc2)Cc2ccccc2[C@@H]2OC(c3ccc(OCCCO)cc3)=N[C@]12Cc1ccccc1
0.243

Note down composite z-score recorded for CN1C=C(C(=O)OCCS(C)(=O)=O)C(C(=O)OCCS(C)(=O)=O)=CC(CCCO)=CC1c1cccs1 (stereo not drawn)
-0.299

Return composite z-score (reported value) for this compound: NC(=O)NCC#Cc1ccc2c(c1)[C@]1(C(=O)N2)[C@H](c2ccc(OCCO)cc2)N2[C@H](c3ccccc3)[C@H](c3ccccc3)OC(=O)[C@H]2[C@@H]1C(=O)Nc1nc2ccccc2s1
0.0253

Give recorded composite z-score. CC(CO)N1C(=O)[C@@H]2C3C(=O)OCCC/C=C\[C@H]3OC23C=CCN(Cc2ccccc2)C(=O)[C@@H]13 (stereo partly drawn)
-0.31

Please list composite z-score recorded for the compound COCCOC(=O)N1C(=O)[C@@]2(c3cc(C#CC4(O)CCCCCC4)ccc31)[C@H](c1ccccc1OCCO)N1[C@H](c3ccccc3)[C@H](c3ccccc3)OC(=O)[C@H]1[C@@H]2C(=O)Nc1nc2ccccc2s1
-0.0468

Answer with the recorded composite z-score for the compound listed here: CCCNC(=O)[C@@]1(Sc2ccc(C)cc2)CC(=O)N(Cc2cc(C(F)(F)F)cc(C(F)(F)F)c2)[C@@H]1c1ccc(CO)cc1I
0.172

Dear colleague, please send me the reported composite z-score for [N-]=[N+]=NCc1ccccc1C[C@@]1(C(=O)NCc2ccccc2)N=C(c2ccc(OCCCO)cc2)O[C@@H]1c1ccccc1 when you can.
-0.025

# return recorded composite z-score for entry C=C(COC)/C(=C/C[C@H](OC(C)=O)c1cccc(OCCO)c1)c1cc(C(=O)OC)ccc1OC
-0.018

Output measured composite z-score for this item: [N-]=[N+]=Nc1ccccc1[C@H]1OC(c2ccc(OCCCO)cc2)=N[C@@]1(Cc1ccccc1)C(N)=O
0.329

# return recorded composite z-score for entry C=CCC(OC(C)=O)[C@@H]1[C@@H](N(Cc2cccc3ccccc23)C(=O)Cc2ccc(OC)cc2)c2cc(OCCCO)ccc2N1C(=O)Cc1ccc(OC)cc1 (stereo partly drawn)
-0.0986

Quickly give me recorded composite z-score for C[N+](C)(C)CCCC[C@@H]1NC(=O)[C@H]2C[C@@H](C(=O)NCCCCCN)[C@@H](c3cccc(OCCO)c3)N2C1=O
0.147

Query composite z-score for CCCCC(=C=CC[C@@H](O)c1ccc(OCCO)cc1)C[C@@H](O)c1cc(Cl)cc(Cl)c1O
0.0536

Name the recorded composite z-score of the compound listed here: CC(C)(C)OC(=O)CC[C@@]1(C(=O)N2CCOCC2)N=C(c2ccc(OCCCO)cc2)O[C@@H]1c1ccccc1
0.182

Look up and report measured composite z-score for this entry: CCOC(=O)C[C@H]1[C@H](OC(=O)c2ccc(-c3ccccc3)cc2)[C@@H](NC(=O)C2CCCCC2)c2cc(OCCCO)ccc2N1C(=O)c1ccc2ccccc2n1
0.0582

# return recorded composite z-score for input O=C(NCc1ccccc1)[C@@H]1c2ccccc2C(=O)N(Cc2ccccc2Cl)[C@H]1c1ccc(CO)cc1
-0.119

# return recorded composite z-score for input C=CCN1C(=O)[C@@]2(O[C@@H](CCn3cc(CCO)nn3)[C@H]([Si](C)(C)c3ccc(OC)cc3)[C@H]2C)c2cc(NC(=O)c3ccc(OC)cc3)ccc21
0.0497

Quick one: give measured composite z-score for CCCC[C@@H](O)C1=C(C)C[C@H]2C(=O)N(C)C(=O)[C@H]2[C@H]1CO
-0.0736

Could you please provide reported composite z-score for CC(C)CNC(=O)[C@@H]1c2ccccc2C(=O)N(Cc2ccc(OC(F)(F)F)cc2)[C@H]1c1ccc(CO)cc1 ? Thanks!
0.25

Return reported composite z-score. Input compound: C=C(CCCC)/C(=C/C[C@@H](OC(=O)c1ccncc1)c1ccc(OCCO)cc1)c1cnc2ccccc2c1
0.108

# return recorded composite z-score for entry CC(C)(C)OC(=O)CC[C@@]12N=C(c3ccc(OCCCO)cc3)O[C@@H]1c1ccccc1CN(Cc1ccccc1)C2=O
0.0756

Identify composite z-score associated with the compound C=CCN1C(=O)[C@]2(O[C@H](CCn3cc([C@H](O)c4ccccc4)nn3)[C@@H]([Si](C)(C)c3ccc(OC)cc3)[C@@H]2C)c2cc(N3CCOC3=O)ccc21
-0.224

Please give the documented composite z-score of CO[C@H]1O[C@H](CO)[C@@H](OC(=O)Nc2ccccc2)[C@H](OC(=O)Nc2ccccc2-c2ccccc2)[C@H]1OC(=O)Nc1ccccc1-c1ccccc1
-0.0506

State, in one line, measured composite z-score of COC(=O)C(CC#Cc1ccc2c(c1)[C@]1(C(=O)N2)[C@H](C(=O)O)[C@H]2C(=O)O[C@H](c3ccccc3)[C@H](c3ccccc3)N2[C@@H]1c1ccc(OCCO)cc1)C(=O)OC
0.0714
